- TARGET DESC: mouse ADAMTS7 (Mus musculus, UniProt Q68SA9, E373Q)
- Construct: Full-length mouse Adamts7 1-1857 (Uniprot Q68SA9, WT or E373Q catalytic mutant); expressed in transfected cells; host or cells: Human Coronary Artery Smooth Muscle Cells (HCA-SMC, Lonza), adenovirus 50 MOI
- Sequence (Q68SA9 221-1657 E373Q): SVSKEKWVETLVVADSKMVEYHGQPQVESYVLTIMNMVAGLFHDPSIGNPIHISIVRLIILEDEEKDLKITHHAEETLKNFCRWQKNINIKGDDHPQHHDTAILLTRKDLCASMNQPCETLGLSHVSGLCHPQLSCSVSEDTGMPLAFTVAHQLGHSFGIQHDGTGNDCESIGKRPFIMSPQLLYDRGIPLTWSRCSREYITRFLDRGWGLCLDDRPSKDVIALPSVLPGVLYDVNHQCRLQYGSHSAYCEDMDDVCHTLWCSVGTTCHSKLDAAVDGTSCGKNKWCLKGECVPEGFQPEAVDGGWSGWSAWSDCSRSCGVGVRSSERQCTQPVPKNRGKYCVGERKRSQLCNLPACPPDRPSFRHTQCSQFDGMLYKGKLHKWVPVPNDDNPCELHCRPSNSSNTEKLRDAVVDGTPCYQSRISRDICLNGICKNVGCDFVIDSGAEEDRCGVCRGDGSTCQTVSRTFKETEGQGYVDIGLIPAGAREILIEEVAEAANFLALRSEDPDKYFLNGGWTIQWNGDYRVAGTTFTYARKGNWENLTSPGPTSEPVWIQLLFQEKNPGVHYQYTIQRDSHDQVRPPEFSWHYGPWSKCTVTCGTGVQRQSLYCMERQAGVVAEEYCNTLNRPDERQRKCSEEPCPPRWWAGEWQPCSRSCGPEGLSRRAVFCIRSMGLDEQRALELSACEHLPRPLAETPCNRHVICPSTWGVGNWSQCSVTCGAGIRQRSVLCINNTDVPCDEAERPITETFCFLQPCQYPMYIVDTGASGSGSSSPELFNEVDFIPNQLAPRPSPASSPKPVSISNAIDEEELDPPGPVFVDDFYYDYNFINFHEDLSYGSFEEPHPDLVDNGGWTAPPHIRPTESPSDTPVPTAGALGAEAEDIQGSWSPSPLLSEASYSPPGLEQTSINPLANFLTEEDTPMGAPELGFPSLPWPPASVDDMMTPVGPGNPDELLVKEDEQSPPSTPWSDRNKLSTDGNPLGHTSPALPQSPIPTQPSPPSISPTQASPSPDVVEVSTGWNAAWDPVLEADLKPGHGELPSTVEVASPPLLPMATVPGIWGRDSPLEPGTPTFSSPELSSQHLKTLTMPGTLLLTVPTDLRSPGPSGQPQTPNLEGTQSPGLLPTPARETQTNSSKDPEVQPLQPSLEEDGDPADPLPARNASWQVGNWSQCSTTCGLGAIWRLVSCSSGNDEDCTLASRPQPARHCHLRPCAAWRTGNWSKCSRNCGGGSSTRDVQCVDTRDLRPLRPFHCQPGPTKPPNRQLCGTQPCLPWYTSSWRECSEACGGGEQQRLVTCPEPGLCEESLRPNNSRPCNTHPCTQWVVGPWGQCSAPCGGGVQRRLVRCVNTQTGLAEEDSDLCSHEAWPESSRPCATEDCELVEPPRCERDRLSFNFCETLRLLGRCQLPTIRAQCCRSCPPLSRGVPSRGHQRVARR
- ASSAY SUMMARY: TMT10 TAILS N-terminomics, SMC1 experiment (Ad-mADAMTS7 WT vs EQ vs Luc, technical replicates, trypsin digest)
- Type: cell-based
- CONDITION LABEL: TAILS neo-N-terminal peptide abundance; log fold change, Ad-mADAMTS7 EQ over Luc
MEASURED PROPERTY: logFC.mEQ.over.Luc
Number only, no unit.

Look over these answered cases.
# SUBSTANCE, logFC.mEQ.over.Luc
measured = [
    ("LTBP2_1584 (SSEVYAQLCNVAR; listed as Homo sapiens)", 0.32),
    ("LOX_58 (LSLGSQYQPQR; listed as Homo sapiens)", "−0.11"),
]

Now look at this one.
INPUT: Find the recorded logFC.mEQ.over.Luc belonging to NID2_291 (HSSVPLGR; listed as Homo sapiens) and report it.
OUTPUT: −0.08
